These measurements were taken from patent US9427428B2.

Test system: HCV type 1b replicon (Huh-7 luc/neo cells)
EXPERIMENT SUMMARY: HCV replicon assay, stable transfection (Huh-Luc, luciferase)
Type: cell-based
PARTICULARS: Hepatitis C virus, Huh-7, 72 h, three days incubation, average of all tests
Consider the following molecules; for each one, report its pEC50.
Numbers only, as −log10 of the molar value.

// solved cases for pEC50 follow
MOLECULE	STUDY SYSTEM	pEC50
COCC[C@H](NC(=O)OC)C(=O)N1CCC[C@H]1c1ncc(-c2ccc3cc(-c4ccc5nc([C@@H]6CCCN6C(=O)[C@H](CCOC)NC(=O)OC)[nH]c5c4)ccc3c2)[nH]1 [Compound 10]	HCV type 1b replicon (Huh-7 luc/neo cells)	10.54
COC(=O)N[C@H](C(=O)N1CCC[C@H]1c1nc2ccc(-c3ccc4cc(-c5cnc([C@@H]6CCCN6C(=O)[C@@H](NC(=O)OC)[C@@H](C)OC)[nH]5)ccc4c3)cc2[nH]1)C(C)C [Compound 11]	HCV type 1b replicon (Huh-7 luc/neo cells)	11.22
CC[C@H](C)[C@H](NC(=O)OC)C(=O)N1CCC[C@H]1c1ncc(-c2ccc3cc(-c4ccc5[nH]c([C@@H]6CCCN6C(=O)[C@@H](NC(=O)OC)[C@@H](C)OC)nc5c4)ccc3c2)[nH]1 [Compound 17]	HCV type 1b replicon (Huh-7 luc/neo cells)	11.30
COC(=O)N[C@H](C(=O)N1CCC[C@H]1c1ncc(-c2ccc3cc(-c4ccc5nc([C@@H]6CCCN6C(=O)[C@@H](NC(=O)OC)[C@@H](C)OC)[nH]c5c4)ccc3c2)[nH]1)[C@@H](C)OC [Compound 4]	HCV type 1b replicon (Huh-7 luc/neo cells)	10.92

Write down the reported pEC50 of COC(=O)N[C@H](C(=O)N1CCC[C@H]1c1ncc(-c2ccc3cc(-c4ccc5nc([C@@H]6CCCN6C(=O)[C@@H](NC(=O)OC)[C@@H](C)OC)[nH]c5c4)ccc3c2)[nH]1)C(C)C [Compound 9] , test system: HCV type 1b replicon (Huh-7 luc/neo cells). 11.15
